assay: mouse liver microsomal stability (Microsome Assay Protocol); assay type: in vitro ADME; conditions: pH 7.4; mouse liver microsomes, NADPH, 37° C.; read-out: MLM t1/2, min
Quantity measured: log10 of half-life at 1 µM (log10 of the value in min)
Please interpret these as log10 of half-life at 1 µM where half-life at 1 µM is in min.

Solved entries (count: 5):
The value of log10 of half-life at 1 µM measured for the molecule CNc1cc(Cl)c2ccc(C(=O)NCCCC(Cc3ccccc3)C(=O)N3CCC(O)(Cn4cnc5cc(NC(=O)CCN(C)C)ccc5c4=O)CC3)cc2n1 (stereo not shown) turned out to be 0.65

The value of log10 of half-life at 1 µM measured for the molecule CNc1cc(Cl)nc2cc(C(=O)NCCCC(Cc3ccccc3)C(=O)N3CCC(O)(Cn4cnc5cc(NC(=O)CCN(C)C)ccc5c4=O)CC3)ccc12 (stereo not shown) turned out to be 1.01

The value of log10 of half-life at 1 µM measured for the molecule CCc1cc(Cl)c2ccc(C(=O)NCCCC(Cc3ccccc3)C(=O)N3CCC(O)(Cn4cnc5cc(NC(=O)CCN(C)C)ccc5c4=O)CC3)cc2n1 (stereo not shown) turned out to be 1.02

The value of log10 of half-life at 1 µM measured for the molecule O=C(NCCCC(Cc1ccccc1)C(=O)N1CCC(O)(Cn2cnc3c(cnn3-c3ccc(F)cc3)c2=O)CC1)c1ccc2c(Cl)ccnc2c1 (stereo not shown) turned out to be 0.00

The value of log10 of half-life at 1 µM measured for the molecule O=C(CN1CCN(C(=O)c2ccc3c(Cl)c4c(nc3c2)CCCC4)CC1)N1CCC(O)(Cn2cnc3cc(Cl)ccc3c2=O)CC1 turned out to be 0.36

Continuing:
The value of log10 of half-life at 1 µM measured for the molecule CN(C)CCCOc1ccc2c(=O)n(CC3(O)CCN(C(=O)[C@H](CCCNC(=O)c4ccc5c(Cl)c6c(nc5c4)CCNC6=O)Cc4ccccc4)CC3)cnc2c1 turned out to be 1.01

The value of log10 of half-life at 1 µM measured for the molecule CC(C)c1cnc2cc(C(=O)NCCC[C@H](Cc3ccccc3)C(=O)N3CCC(O)(Cn4cnc5cc(NC(=O)CCN(C)C)ccc5c4=O)CC3)ccc2c1Cl turned out to be 0.48

---

experiment: mouse liver microsomal stability (Microsome Assay Protocol); format: in vitro ADME; details: pH 7.4; mouse liver microsomes, NADPH, 37° C.; read-out: MLM t1/2, min
Quantity measured: half-life at 1 µM (min)
Output spec: scalar in min, unitless text.

Solved entries (count: 4):
The value of half-life at 1 µM measured for the molecule CN(C)CCOc1ccc2c(=O)n(CC3(O)CCN(C(=O)[C@H](CCCNC(=O)c4ccc5c(Cl)cc(C6CC6)nc5c4)Cc4ccccc4)CC3)cnc2c1 turned out to be 20.3

The value of half-life at 1 µM measured for the molecule CN(C)CCCOc1cc2ncn(CC3(O)CCN(C(=O)[C@@H](CCCNC(=O)c4ccc5c(Cl)cc(C6CC6)nc5c4)Cc4ccccc4)CC3)c(=O)c2cc1F turned out to be 22.1

The value of half-life at 1 µM measured for the molecule CN(C)CCCOc1ccc2c(=O)n(CC3(O)CCN(C(=O)C(CCCNC(=O)c4ccc5c(Cl)c6c(nc5c4)C(C)(C)NC6=O)Cc4ccccc4)CC3)cnc2c1 (centres unmarked) turned out to be 16.3

The value of half-life at 1 µM measured for the molecule O=C(CCN1CCOCC1)Nc1ccc2c(=O)n(CC3(O)CCN(C(=O)C(CCCNC(=O)c4ccc5c(Cl)ccnc5c4)Cc4ccccc4)CC3)cnc2c1 (centres unmarked) turned out to be 2.71

Continuing:
The value of half-life at 1 µM measured for the molecule CN(C)CCC(=O)Nc1ccc2c(=O)n(CC3(O)CCN(C(=O)C(CCCNC(=O)c4ccc5c(Cl)cc(O)nc5c4)Cc4ccccc4)CC3)cnc2c1 (centres unmarked) turned out to be 12.8

---

In this section we review reported pIC50 values for a set of compounds.
molecular target: USP7, Active human recombinant protein (Homo sapiens, UniProt Q93009); construct: purchased CP Lot; 20200225001; assay: USP7 assay (Ubiquitin-Rhodamine 110 enzymatic assay); type: biochemical; conditions: read-out: IC50
Sequence (Q93009 whole entry): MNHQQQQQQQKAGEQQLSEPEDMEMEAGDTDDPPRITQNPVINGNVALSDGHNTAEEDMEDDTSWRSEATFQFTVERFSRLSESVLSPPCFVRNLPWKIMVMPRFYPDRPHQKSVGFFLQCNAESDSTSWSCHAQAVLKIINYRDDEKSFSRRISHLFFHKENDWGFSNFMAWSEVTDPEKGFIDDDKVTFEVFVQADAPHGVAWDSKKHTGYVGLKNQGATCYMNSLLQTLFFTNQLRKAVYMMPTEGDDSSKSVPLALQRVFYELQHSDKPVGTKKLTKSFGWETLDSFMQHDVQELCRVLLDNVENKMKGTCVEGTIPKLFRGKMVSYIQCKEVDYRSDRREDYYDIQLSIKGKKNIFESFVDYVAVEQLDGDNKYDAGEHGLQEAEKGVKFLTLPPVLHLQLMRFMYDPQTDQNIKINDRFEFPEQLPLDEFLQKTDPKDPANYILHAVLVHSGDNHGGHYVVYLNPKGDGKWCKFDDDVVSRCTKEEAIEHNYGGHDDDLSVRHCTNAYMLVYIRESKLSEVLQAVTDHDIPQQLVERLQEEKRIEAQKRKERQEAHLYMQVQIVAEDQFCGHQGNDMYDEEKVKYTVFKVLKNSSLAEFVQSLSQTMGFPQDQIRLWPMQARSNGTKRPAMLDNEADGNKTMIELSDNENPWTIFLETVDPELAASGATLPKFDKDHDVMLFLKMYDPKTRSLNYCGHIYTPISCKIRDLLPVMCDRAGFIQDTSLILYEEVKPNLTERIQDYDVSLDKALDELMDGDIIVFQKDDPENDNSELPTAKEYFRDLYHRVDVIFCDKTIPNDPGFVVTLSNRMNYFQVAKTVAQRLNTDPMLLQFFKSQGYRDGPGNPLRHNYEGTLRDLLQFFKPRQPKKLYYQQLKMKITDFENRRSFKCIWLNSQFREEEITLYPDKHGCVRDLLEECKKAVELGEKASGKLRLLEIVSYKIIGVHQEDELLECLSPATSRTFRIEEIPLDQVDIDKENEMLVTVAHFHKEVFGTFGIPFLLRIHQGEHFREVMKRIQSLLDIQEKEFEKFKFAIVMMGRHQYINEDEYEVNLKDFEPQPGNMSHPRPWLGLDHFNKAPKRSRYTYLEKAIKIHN
pIC50: −log10 of the molar value.

Solved entries (count: 3):
The value of pIC50 measured for the compound CNc1cc(Cl)c2ccc(C(=O)NCCCC(Cc3ccccc3)C(=O)N3CCC(O)(Cn4cnc5cc(NC(=O)CCN(C)C)ccc5c4=O)CC3)cc2n1 (stereo not drawn) [Compound 69] turned out to be < 6.00

The value of pIC50 measured for the compound CN(C)CCC(=O)Nc1ccc2c(=O)n(CC3(O)CCN(C(=O)N(CCCNC(=O)c4ccc5c(Cl)ccnc5c4)Cc4ccccc4)CC3)cnc2c1 [Compound 83] turned out to be < 6.00

The value of pIC50 measured for the compound CN1CCN(CCC(=O)Nc2ccc3c(=O)n(CC4(O)CCN(C(=O)C(CCCNC(=O)c5ccc6c(Cl)cc(-c7cnn(CC(F)(F)F)c7)nc6c5)Cc5ccccc5)CC4)cnc3c2)CC1 (stereo not drawn) [Compound 18] turned out to be 7.00 to 7.70

Continuing:
The value of pIC50 measured for the compound COc1cc(Cl)c2ccc(C(=O)NCCCC(Cc3ccccc3)C(=O)N3CCC(O)(Cn4cnc5cc(NC(=O)CCN(C)C)ccc5c4=O)CC3)cc2n1 (stereo not drawn) [Compound 66] turned out to be < 6.00

The value of pIC50 measured for the compound CN(C)CCC(=O)Nc1ccc2c(=O)n(CC3(O)CCN(C(=O)c4cn(CCNC(=O)c5ccc6c(Cl)ccnc6c5)nc4C4CC4)CC3)cnc2c1 [Compound 56] turned out to be < 6.00

The value of pIC50 measured for the compound CN(C)CC(=O)Nc1ccc2c(=O)n(CC3(O)CCN(C(=O)C4CCCC(NC(=O)c5ccc6c(Cl)ccnc6c5)C4)CC3)cnc2c1 (stereo not drawn) [Compound 36] turned out to be < 6.00
